Quick list: EC50 per entry.
assayed.target: GLP-1 Receptor (GLP1R) (Homo sapiens)
Construct: host or cells: HEK293/GLP1R/CRE-LUC
procedure.summary: GLP-1R agonist cAMP stimulation assay (Method 3)
Format: cell-based
measurement.setup: HEK293/GLP1R/CRE-LUC cells (HDB), Method 3, 30 min incubation; read-out: GLP1R cAMP Stimulation DR: pEC50 (M) [Species: Human, Assay Cell Line: HDB] (converted)

Consider the reported EC50 for these compounds:
compound	EC50
Cc1cc(-n2nc3c(c2-n2ccn(-c4ccc(P(C)(C)=O)c(F)c4)c2=O)[C@H](C)N(C(=O)c2cc4cc(C5CCOCC5)ccc4n2[C@@]2(c4noc(=O)[nH]4)C[C@@H]2C)CC3)cc(C)c1F [Compound 108a]	1e-10 to 1e-09 M
Cc1cc(-n2nc3c(c2-n2ccn(-c4ccc(P5(=O)CCCC5)cc4)c2=O)[C@H](C)N(C(=O)c2cc4cc(C5CCOCC5)ccc4n2[C@@]2(c4noc(=O)[nH]4)C[C@@H]2C)CC3)cc(C)c1F [Compound 127a]	≤ 1e-10 M
Cc1cc(-n2nc3c(c2-n2ccn(-c4ccc(P(C)(C)=O)nc4)c2=O)[C@H](C)N(C(=O)c2cc4cc(C5CCOCC5)ccc4n2[C@@]2(c4noc(=O)[nH]4)C[C@@H]2C)CC3)cc(C)c1F [Compound 105a]	1e-10 to 1e-09 M
Cc1cc(-n2nc3c(c2-n2ccn(-c4cccc(P(C)(C)=O)n4)c2=O)[C@H](C)N(C(=O)c2cc4cc(C5CCOCC5)ccc4n2[C@@]2(c4noc(=O)[nH]4)C[C@@H]2C)CC3)cc(C)c1F [Compound 113a]	1e-10 to 1e-09 M

Here is the next item to consider.
What value of EC50 on GLP-1 Receptor (GLP1R) (Homo sapiens) does Cc1cc(-n2nc3c(c2-n2ccn(-c4ccc(P(C)(C)=O)cc4F)c2=O)[C@H](C)N(C(=O)c2cc4cc(C5CCOCC5)ccc4n2[C@@]2(c4noc(=O)[nH]4)C[C@@H]2C)CC3)cc(C)c1F [Compound 122a] have?
≤ 1e-10 M

###

assayed.target: GLP-1 Receptor (GLP1R) (Homo sapiens)
Construct: host or cells: HEK293/GLP1R/CRE-LUC
procedure.summary: GLP-1R agonist cAMP stimulation assay (Method 3)
Type: cell-based
measurement.setup: HEK293/GLP1R/CRE-LUC cells (HDB), Method 3, 30 min incubation; read-out: GLP1R cAMP Stimulation DR: pEC50 (M) [Species: Human, Assay Cell Line: HDB] (converted)
Quick list: EC50 per entry.

Consider the reported EC50 for these compounds:
compound	quantity.kind	assay.value
CCP(=O)(CC)c1cc(F)c(-n2ccn(-c3c4c(nn3-c3cc(C)c(F)c(C)c3)CCN(C(=O)c3cc5cc(C6CCOCC6)ccc5n3[C@@]3(c5noc(=O)[nH]5)C[C@@H]3C)[C@H]4C)c2=O)cc1NC [Compound 144a]	EC50	≤ 1e-10 M
CNc1cc(-n2ccn(-c3c4c(nn3-c3cc(C)c(F)c(C)c3)CCN(C(=O)c3cc5cc(C6CCOCC6)ccc5n3C3(c5noc(=O)[nH]5)CC3)[C@H]4C)c2=O)ccc1P(=O)(C1CC1)C1CC1 [Compound 148a]	EC50	≤ 1e-10 M
Cc1cc(-n2nc3c(c2-n2ccn(-c4cc(P(C)(C)=O)c5[nH]cnc5c4)c2=O)[C@H](C)N(C(=O)c2cc4cc(C5CCOCC5)ccc4n2[C@@]2(c4noc(=O)[nH]4)C[C@@H]2C)CC3)cc(C)c1F [Compound 110a]	EC50	1e-10 to 1e-09 M

Here is the next item to consider.
Suppose we examine the compound CCP(=O)(CC)c1ccc(-n2ccn(-c3c4c(nn3-c3cc(C)c(F)c(C)c3)CCN(C(=O)c3cc5cc(C6CCOCC6)ccc5n3[C@@]3(c5noc(=O)[nH]5)C[C@@H]3C)[C@H]4C)c2=O)cc1OC(F)F [Compound 136a] ; what EC50 value has been reported?
1e-10 to 1e-09 M

###

assayed.target: GLP-1 Receptor (GLP1R) (Homo sapiens, UniProt P43220)
Construct: host or cells: HEK293/GLP1R/CRE-LUC
Sequence (P43220 24-463): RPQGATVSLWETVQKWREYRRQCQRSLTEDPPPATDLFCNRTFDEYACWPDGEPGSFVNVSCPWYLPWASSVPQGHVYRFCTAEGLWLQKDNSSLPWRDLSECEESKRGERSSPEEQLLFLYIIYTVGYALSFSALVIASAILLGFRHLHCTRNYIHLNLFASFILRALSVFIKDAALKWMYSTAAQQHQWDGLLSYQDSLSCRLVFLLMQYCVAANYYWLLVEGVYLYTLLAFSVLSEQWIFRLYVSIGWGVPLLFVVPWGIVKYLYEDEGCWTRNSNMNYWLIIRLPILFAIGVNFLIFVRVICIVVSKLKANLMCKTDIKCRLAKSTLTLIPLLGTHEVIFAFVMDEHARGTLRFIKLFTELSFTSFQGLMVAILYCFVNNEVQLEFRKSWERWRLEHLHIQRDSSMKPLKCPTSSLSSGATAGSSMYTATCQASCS
procedure.summary: GLP-1R agonist cAMP stimulation assay (Method 3)
Assay type: cell-based
measurement.setup: HEK293/GLP1R/CRE-LUC cells (HDB), Method 3, 30 min incubation; read-out: GLP1R cAMP Stimulation DR: EC50 (nM) [Species: Human, Assay Cell Line: HDB]
Quick list: EC50 per entry.

Consider the reported EC50 for these molecules:
molecule	assayed.target	EC50
Cc1cc(-n2nc3c(c2-n2ccn(-c4cccc(P(C)(C)=O)c4O)c2=O)[C@H](C)N(C(=O)c2cc4cc(C5CCOCC5)ccc4n2[C@@]2(c4noc(=O)[nH]4)C[C@@H]2C)CC3)cc(C)c1F [Compound 107a]	GLP-1 Receptor (GLP1R) (Homo sapiens, UniProt P43220)	0.2 to 0.5 nM
Cc1cc(-n2nc3c(c2-n2ccn(-c4ccc(P5(=O)CCCC5)cc4)c2=O)[C@H](C)N(C(=O)c2cc4cc(C5CCOCC5)ccc4n2[C@@]2(c4noc(=O)[nH]4)C[C@@H]2C)CC3)cc(C)c1F [Compound 127a]	GLP-1 Receptor (GLP1R) (Homo sapiens, UniProt P43220)	< 0.1 nM
CCP(=O)(CC)c1ccc(-n2ccn(-c3c4c(nn3-c3cc(C)c(F)c(C)c3)CCN(C(=O)c3cc5cc(C6CCOCC6)ccc5n3C3(c5noc(=O)[nH]5)CC3)[C@H]4C)c2=O)cc1NC [Compound 135a]	GLP-1 Receptor (GLP1R) (Homo sapiens, UniProt P43220)	< 0.1 nM
CCP(=O)(CC)c1ccc(-n2ccn(-c3c4c(nn3-c3cc(C)c(F)c(C)c3)CCN(C(=O)c3cc5cc(C6CCOCC6)ccc5n3[C@@]3(c5noc(=O)[nH]5)C[C@@H]3C)[C@H]4C)c2=O)cc1NC(C)C [Compound 119a]	GLP-1 Receptor (GLP1R) (Homo sapiens, UniProt P43220)	0.2 to 0.5 nM
CCP(=O)(CC)c1c(C)cc(-n2ccn(-c3c4c(nn3-c3cc(C)c(F)c(C)c3)CCN(C(=O)c3cc5cc(C6CCOCC6)ccc5n3[C@@]3(c5noc(=O)[nH]5)C[C@@H]3C)[C@H]4C)c2=O)cc1NC [Compound 140a]	GLP-1 Receptor (GLP1R) (Homo sapiens, UniProt P43220)	0.5 to 5 nM

Suppose we examine the molecule CCP(=O)(CC)c1ccc(-n2ccn(-c3c4c(nn3-c3cc(C)c(F)c(C)c3)CCN(C(=O)c3cc5cc(C6CCC(F)(F)CC6)ccc5n3[C@@]3(c5noc(=O)[nH]5)C[C@@H]3C)[C@H]4C)c2=O)cc1NC [Compound 133a] ; what EC50 value has been reported?
0.1 to 0.2 nM

Another molecule to check: Cc1cc(-n2nc3c(c2-n2ccn(-c4cc(P(C)(C)=O)c5[nH]cnc5c4)c2=O)[C@H](C)N(C(=O)c2cc4cc(C5CCOCC5)ccc4n2[C@@]2(c4noc(=O)[nH]4)C[C@@H]2C)CC3)cc(C)c1F [Compound 110a]
0.5 to 5 nM

Another molecule to check: Cc1cc(-n2nc3c(c2-n2ccn(-c4ccc(P(C)(C)=O)c(F)c4)c2=O)[C@H](C)N(C(=O)c2cc4cc(C5CCOCC5)ccc4n2[C@@]2(c4noc(=O)[nH]4)C[C@@H]2C)CC3)cc(C)c1F [Compound 108a]
0.2 to 0.5 nM

###

assayed.target: GLP-1 Receptor (GLP1R) (Homo sapiens, UniProt P43220)
Construct: host or cells: HEK293/GLP1R/CRE-LUC
procedure.summary: GLP-1R agonist cAMP stimulation assay (Method 3)
Format: cell-based
measurement.setup: HEK293/GLP1R/CRE-LUC cells (HDB), Method 3, 30 min incubation; read-out: GLP1R cAMP Stimulation DR: EC50 (nM) [Species: Human, Assay Cell Line: HDB]
Procedure: Method 3: Activation of GLP-1 receptor is known to stimulate cyclic AMP (cAMP) production in cells which indicates primary coupling to the Gαs subunit of the G protein heterotrimeric complex. […] After incubation the cAMP assay signal was generated using cAMP dynamic 2 Kit (Cisbio). […] Read the fluorescence at 665 nm and 615 nm with Reader PerkinElmer EnVision.
Quick list: EC50 per entry.

compound	EC50
CCP(=O)(CC)c1ccc(-n2ccn(-c3c4c(nn3-c3cc(C)c(F)c(C)c3)CCN(C(=O)c3cc5cc(N6CCOC(C)(C)C6)ccc5n3[C@@]3(c5noc(=O)[nH]5)C[C@@H]3C)[C@H]4C)c2=O)cc1NC [Compound 150a]	0.1 to 0.2 nM

Here is the next item to consider.
Suppose we examine the compound CCP(=O)(CC)c1ccc(-n2ccn(-c3c4c(nn3-c3cc(C)c(F)c(C)c3)CCN(C(=O)c3cc5cc(C6CCOCC6)ccc5n3[C@@]3(c5noc(=O)[nH]5)C[C@@H]3C)[C@H]4C)c2=O)cc1N [Compound 138a] ; what EC50 value has been reported?
< 0.1 nM
